- PROCEDURE_TEXT: Solubility limit in the buffer used for activity assays
- Assay type: physicochemical
- TEST_PARAMETERS: aqueous buffer

[
  {
    "SMILES_ENTRY": "Cc1ccc(C[C@]2(NS(=O)(=O)c3ccc(C)cc3)C[C@H]2c2ccccc2)cc1",
    "solubility": "~50 µM"
  },
  {
    "SMILES_ENTRY": "Cc1ccc(C[C@]2(NS(C)(=O)=O)C[C@H]2c2ccccc2)cc1",
    "solubility": "~250 µM"
  }
]
